assay: yeast display, Sf9 membrane polyspecificity reagent, FACS + sequencing; frameworks hold sequencing errors
quantity_name: polyreactivity (PSR sort gate)

>>> experimental_result("QVQLVESGGGLVQAGGSLRLSCAASGSIFYLYAMGWYRQAPGKERELVAAITSIGGSTYADSVKGRFTISRDNAKNTVYLQMYSLKPEDTAVYYCNTDEYPLTVQVQYYYWGQGTQVTVSS")
"low polyreactivity"
>>> experimental_result("QVQLVESGGGLVQAGGSLRLSCAASGSIFYRYAMGWSRQAPGKERELVAYISSGVSTNYADSVKGRFTISRDNAKKTVYLQMNSLKPEDTAVYYCAVRHSYTRAYWGRDFWGQGTQVTVSS")
"low polyreactivity"
>>> experimental_result("QVQLVESGGGLVQAGGSLRLSCAASGRIFYRNAMGWYRQAPGKERELVAAISSGSGTYYADSVKGRFTISRDNAKNTVYLQMNSLKPEDTAVYYCAARARSRDYYWGQGTQVTVSS")
"high polyreactivity"
>>> experimental_result("QFQLVESGGGLVQAGGSLRLSFAPSGSTFSYYAMGWYRPAPGKERELVAAISSRGGSTYYADSVKGRFTISRYNAKNTFYFQMNCLKAEDTDVYYSAAVLRGPDPTSTYYSWGQGTQVTVSS")
"high polyreactivity"
>>> experimental_result("QVQLEESGGGLVQAGGSLRISCAASGRTIGPYAMGWYRQARGKERELVAAISGGGSTNYADSVKGRFTISRDNAKNSDYLQMNSLKPEDTAVYYCNTEYPISGEEEYWGQGTHVTVSS")
"low polyreactivity"
>>> experimental_result("QVQLVESGGGLVQEGGSLRLSCAASGFIVNRYAMGWYRQAPGKERELVAAITGSGSRTYYADSVKGRFTISRDNAKNTVYLHMNSLKPEATAVYYCNTDRRPTADFGYWGQGTQVTVAS")
"high polyreactivity"
>>> experimental_result("QVQLVESGGGLVQAGGSLRLSCAASGSTFHQNTMGWYRQAPVKEREMVAAISWTGGGTYYADSVKGRYTISRDNAKNTVYLQMNSLKPEDTAVYYCAADYSDFWGFRYYYWGQGTQVNVSS")
"low polyreactivity"
>>> experimental_result("QVQLVESEGGLVQAGGSLRISCAASGRNFRTYDMGWYRQAPGKERELVAAISEEGGYTYYADSVKGRFTISRDNAKNTVYLQMNSLKPEDTAVYYCAKDRPGPLRWWFLYGYWGQGTQVTVSS")
"low polyreactivity"
>>> experimental_result("QVQIVESGGGLVQAGGSLRLSCAASGFIFGANAMGWYRQAPGKEREFVAAISSSGGRYELRRSVKGRFTISRDKAKNTVYLQMNSLKPEDTAVYYCATPYPTGRPRHYYWGQGTQVTVSS")
"high polyreactivity"
>>> experimental_result("QVQLVESGGGLVQAGGSLRLSCAASGFIFYPYAMGWYRQAPGKEREVVAVITSGGRTYYADSVKGRFTISRDNAKNTVYLQMNSLKPEDTAVYYCAARYGRIHWKANWPEYGYWGQGTQVTVSS")
"low polyreactivity"

Now take the following sequence into account.
Lookup: Give polyreactivity (PSR sort gate) for the following sequence: QVQLVESGGGLVQAGGSLRLSCAASGSILDPNAMGWYRQAPGKERELVASISRGDNTYYADSVKGRFTISRDNAKNTVYFQMNSLKPEDTAVYDCAADYSWVVWHDYWGQGTQVTVSS
Found: low polyreactivity
